Biological target: rabbit reticulocyte 20S proteasome, chymotrypsin-like (CT-L) activity (UniProt G1T4Q9)
Sequence (G1T4Q9 entry or part of it): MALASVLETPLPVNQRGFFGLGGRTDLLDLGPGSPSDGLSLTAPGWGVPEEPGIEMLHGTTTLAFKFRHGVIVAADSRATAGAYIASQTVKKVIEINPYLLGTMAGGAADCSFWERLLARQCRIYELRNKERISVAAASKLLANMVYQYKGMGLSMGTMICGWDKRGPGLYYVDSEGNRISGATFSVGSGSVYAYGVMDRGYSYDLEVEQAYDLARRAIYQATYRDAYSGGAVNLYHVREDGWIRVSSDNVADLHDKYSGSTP
pIC50: −log10 of the molar value.
readout-kind: pIC50

>>> print(df.to_string())
                                   compound                             target_entity  readout_kind  value_reported
0  CC(C)c1noc(CN(C(=O)COc2ccc(Br)cc2)C(C)C)n1 [Compound 28]  rabbit reticulocyte 20S proteasome, chymotrypsin-like (CT-L) activity (UniProt G1T4Q9)         pIC50            4.91
1  CCc1ccc(OCC(=O)N(Cc2nc(-c3ccc(OC)cc3)no2)C(C)C)cc1 [Compound 7]  rabbit reticulocyte 20S proteasome, chymotrypsin-like (CT-L) activity (UniProt G1T4Q9)         pIC50            7.05
2  CC(C)N(Cc1nc(C(C)(C)C)no1)C(=O)COc1ccc(Br)cc1 [Compound 29]  rabbit reticulocyte 20S proteasome, chymotrypsin-like (CT-L) activity (UniProt G1T4Q9)         pIC50            4.09
3  COc1ccc(OCC(=O)N(Cc2nc(-c3ccccc3)no2)C(C)C)cc1 [Compound 6]  rabbit reticulocyte 20S proteasome, chymotrypsin-like (CT-L) activity (UniProt G1T4Q9)         pIC50            5.99
4  CCc1ccc(OCC(=O)N(Cc2nc(-c3cccc(C)c3)no2)C(C)C)cc1 [Compound 3]  rabbit reticulocyte 20S proteasome, chymotrypsin-like (CT-L) activity (UniProt G1T4Q9)         pIC50            6.77
